ASSAY_SYSTEM: calcitriol receptor (Sus scrofa)
MEASUREMENT_DESCRIPTION: calcitriol-receptor test (competition with 3H-calcitriol)
CONDITION_NOTES: competition factor = concentration of test substance / concentration of calcitriol at 50% competition; protein extract from intestines of juvenile pigs
VALUE_KIND: KF
Lab note: jot the number down without any unit.

Exercise: I'm curious: which KF was measured for `C=C1/C(=C\C=C2/CCC[C@]3(C)[C@@H]([C@H](C)[C@@H](O)CCCC4(C(C)=O)CC4)CC[C@@H]23)C[C@@H](O)C[C@@H]1O` tested on calcitriol receptor (Sus scrofa)?
Solution: 30

Exercise: Query KF on calcitriol receptor (Sus scrofa) for C=C1/C(=C\C=C2/CCC[C@]3(C)[C@@H]([C@H](C)/C=C/[C@@H](O)CCC4(C(C)=O)CC4)CC[C@@H]23)C[C@@H](O)C[C@@H]1O [Compound 168b]
Solution: 3

Exercise: # query: KF | item C=C1/C(=C\C=C2/CCC[C@]3(C)[C@@H]([C@H](C)/C=C/[C@@H](O)C4(CCCCCCC)CC4)CC[C@@H]23)C[C@@H](O)C[C@@H]1O [Compound 236b] | system: calcitriol receptor (Sus scrofa)
Solution: 20

Exercise: Given the entry `C=C1/C(=C\C=C2/CCC[C@]3(C)[C@@H]([C@H](C)/C=C/CCC4(C(C)=O)CC4)CC[C@@H]23)C[C@@H](O)C[C@@H]1O` , what KF was observed with calcitriol receptor (Sus scrofa)?
Solution: 5

---

MEASUREMENT_DESCRIPTION: metabolic stability in liver homogenate
Type: in vitro ADME
CONDITION_NOTES: half-life in the liver homogenate (rat)
VALUE_KIND: T½

Exercise: Give the measured T½ of `C=C1/C(=C\C=C2/CCC[C@]3(C)[C@@H]([C@H](C)/C=C/CC4(C(=O)CCC)CC4)CC[C@@H]23)C[C@@H](O)C[C@@H]1O` .
Solution: 2 h

Exercise: What does the record list as T½ for `C=C1/C(=C\C=C2/CCC[C@]3(C)[C@@H]([C@H](C)/C=C/CC4(C(C)=O)CC4)CC[C@@H]23)C[C@@H](O)C[C@@H]1O` ?
Solution: 1.83 h

Exercise: Given the compound C=C1C(=CC=C2CCCC3(C)C2CCC3C(C)C=CCCC2(C(=O)CCCC)CC2)CC(O)CC1O (centres unmarked) , what is its reported T½?
Solution: >2 h

Exercise: What does the record list as T½ for C=C1/C(=C\C=C2/CCC[C@]3(C)[C@@H]([C@H](C)/C=C/[C@@H](O)C4(CCCCCCC)CC4)CC[C@@H]23)C[C@@H](O)C[C@@H]1O [Compound 236b] ?
Solution: 1.67 h

Exercise: What measured T½ goes with `C=C1/C(=C\C=C2/CCC[C@]3(C)[C@@H]([C@H](C)/C=C/CC4(C(=O)CCCC)CC4)CC[C@@H]23)C[C@@H](O)C[C@@H]1O` ?
Solution: >2 h

Exercise: Fill blank: measured T½ of the compound C=C1C(=CC=C2CCCC3(C)C2CCC3C(C)C=CCC2(C(=O)CCCCC)CC2)CC(O)CC1O (centres unmarked) is ____.
Solution: >2 h

Exercise: Return reported T½; argument: C=C1/C(=C\C=C2/CCC[C@]3(C)[C@@H]([C@H](C)/C=C/[C@@H](O)C4(CCCCCC)CC4)CC[C@@H]23)C[C@@H](O)C[C@@H]1O [Compound 231b]
Solution: 1.25 h

Exercise: T½ lookup needed for `C=C1/C(=C\C=C2/CCC[C@]3(C)[C@@H]([C@H](C)[C@@H](O)CCCC4(C(C)=O)CC4)CC[C@@H]23)C[C@@H](O)C[C@@H]1O` , thanks.
Solution: 2 h

Exercise: Which T½ reading was recorded for the compound C=C1C(=CC=C2CCCC3(C)C2CCC3C(C)C=CCCC2(C(=O)CCC)CC2)CC(O)CC1O (centres unmarked) ?
Solution: 2 h

Exercise: Given C=C1C(=CC=C2CCCC3(C)C2CCC3C(C)C=CC(O)C2(CCCC)CC2)CC(O)CC1O (centres unmarked) [Compound 226b] , state its recorded T½.
Solution: 1.67 h

Exercise: Please look up its T½: C=C1/C(=C\C=C2/CCC[C@]3(C)[C@@H]([C@H](C)/C=C/[C@@H](O)C4(CC)CC4)CC[C@@H]23)C[C@@H](O)C[C@@H]1O [Compound 214b]
Solution: 1.67 h

Exercise: For C=C1/C(=C\C=C2/CCC[C@]3(C)[C@@H]([C@H](C)/C=C/[C@@H](O)CCC4(C(C)=O)CC4)CC[C@@H]23)C[C@@H](O)C[C@@H]1O [Compound 168b] , what is its reported T½?
Solution: 2 h

Exercise: Please look up its T½: `C=C1/C(=C\C=C2/CCC[C@]3(C)[C@@H]([C@H](C)/C=C/CCC4(C(C)=O)CC4)CC[C@@H]23)C[C@@H](O)C[C@@H]1O`
Solution: 2 h

Exercise: Look up T½: C=C1C(=CC=C2CCCC3(C)C2CCC3C(C)C(O)CCCC2(C(=O)CCC)CC2)CC(O)CC1O (centres unmarked)
Solution: 1.67 h

---

ASSAY_SYSTEM: calcitriol receptor (Sus scrofa, UniProt A3RGC1)
Sequence (A3RGC1 1-427): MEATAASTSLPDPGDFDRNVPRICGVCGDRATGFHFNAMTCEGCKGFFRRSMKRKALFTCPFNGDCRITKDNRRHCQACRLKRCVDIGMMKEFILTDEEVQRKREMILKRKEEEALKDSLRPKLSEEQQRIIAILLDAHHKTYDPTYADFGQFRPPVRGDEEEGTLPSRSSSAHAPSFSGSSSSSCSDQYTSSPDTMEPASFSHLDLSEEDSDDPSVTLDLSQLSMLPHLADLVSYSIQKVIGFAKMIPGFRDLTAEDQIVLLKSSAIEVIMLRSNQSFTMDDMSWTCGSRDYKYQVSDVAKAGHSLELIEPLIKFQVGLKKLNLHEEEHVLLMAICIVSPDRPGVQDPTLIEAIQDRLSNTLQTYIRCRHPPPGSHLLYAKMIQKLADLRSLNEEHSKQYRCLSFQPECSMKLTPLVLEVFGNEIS
MEASUREMENT_DESCRIPTION: calcitriol-receptor test (competition with 3H-calcitriol)
CONDITION_NOTES: competition factor = concentration of test substance / concentration of calcitriol at 50% competition; protein extract from intestines of juvenile pigs
Tick Fulfilled if KF is 4 or greater. Tick Not fulfilled if KF is less than 4.

Exercise: Hi, just wondering whether `C=C1/C(=C\C=C2/CCC[C@]3(C)[C@@H]([C@H](C)/C=C/CC4(C(=O)CCC)CC4)CC[C@@H]23)C[C@@H](O)C[C@@H]1O` shows KF of 4 or higher.
Solution: Fulfilled

Exercise: Evaluate C=C1C(=CC=C2CCCC3(C)C2CCC3C(C)C=CCCC2(C(=O)CCCC)CC2)CC(O)CC1O (stereo not drawn) : KF at minimum 4?
Solution: Fulfilled

Exercise: Tell me whether KF is at least 4 here: C=C1C(=CC=C2CCCC3(C)C2CCC3C(C)C=CCCC2(C(=O)CCC)CC2)CC(O)CC1O (stereo not drawn)
Solution: Fulfilled

Exercise: Test whether the compound C=C1/C(=C\C=C2/CCC[C@]3(C)[C@@H]([C@H](C)/C=C/[C@@H](O)C4(CC)CC4)CC[C@@H]23)C[C@@H](O)C[C@@H]1O [Compound 214b] records KF of 4 or higher.
Solution: Not fulfilled

Exercise: hey, is KF for this one >= 4? C=C1C(=CC=C2CCCC3(C)C2CCC3C(C)C=CCC2(C(=O)CCCCC)CC2)CC(O)CC1O (stereo not drawn)
Solution: Fulfilled

Exercise: Tell me whether KF is at least 4 here: C=C1/C(=C\C=C2/CCC[C@]3(C)[C@@H]([C@H](C)/C=C/[C@@H](O)C4(/C=C/CC)CC4)CC[C@@H]23)C[C@@H](O)C[C@@H]1O [Compound 221b]
Solution: Not fulfilled

Exercise: # check: KF of C=C1/C(=C\C=C2/CCC[C@]3(C)[C@@H]([C@H](C)/C=C/[C@@H](O)CCC4(C(=O)CCC)CC4)CC[C@@H]23)C[C@@H](O)C[C@@H]1O [Compound 175b] is greater than or equal to 4
Solution: Not fulfilled

Exercise: Confirm if KF reported for the compound C=C1/C(=C\C=C2/CCC[C@]3(C)[C@@H]([C@H](C)/C=C/[C@@H](O)C4CC4)CC[C@@H]23)C[C@@H](O)C[C@@H]1O [calcipotriol, reference compound] is 4 or above.
Solution: Not fulfilled

Exercise: Determine whether this compound has KF no lower than 4: C=C1/C(=C\C=C2/CCC[C@]3(C)[C@@H]([C@H](C)/C=C/[C@@H](O)CCC4(C(=O)CCCC)CC4)CC[C@@H]23)C[C@@H](O)C[C@@H]1O [Compound 182b]
Solution: Not fulfilled

Exercise: Has `C=C1/C(=C\C=C2/CCC[C@]3(C)[C@@H]([C@H](C)/C=C/CC4(C(=O)CCCC)CC4)CC[C@@H]23)C[C@@H](O)C[C@@H]1O` a recorded KF greater than or equal to 4?
Solution: Fulfilled

Exercise: Test whether the compound C=C1/C(=C\C=C2/CCC[C@]3(C)[C@@H]([C@H](C)/C=C/[C@@H](O)C4(CCCCCC)CC4)CC[C@@H]23)C[C@@H](O)C[C@@H]1O [Compound 231b] records KF of 4 or higher.
Solution: Fulfilled
